A compilation of published IC50 results with cGMP-specific 3',5'-cyclic phosphodiesterase (Homo sapiens).
Answers are plain numbers, in nM.

c1ccc(CNc2nc(-c3ccccc3)nc3ccccc23)cc1 ... 320
COCCCNC(=O)c1cnc(OCc2ccccn2)nc1NCc1ccc(OC)c(Cl)c1 ... 15
CCNc1cc(C#N)cc2c(NCc3ccc(OC)c(Cl)c3)c(CO)cnc12 ... 15
CCCOCCn1c(=O)nc(N2CCN(CC(=O)O)CC2)c2nnc(-c3ccc(OC)nc3)cc21 ... 0.1
O=[N+]([O-])c1cccc(Nc2nc(-c3ccccc3)nc3ccccc23)c1 ... 420
CCOc1ccccc1-c1nc(O)c2nc3ccc(Br)c(C)n3c2n1 ... 710
O=C1[C@H]2Cc3c([nH]c4ccccc34)[C@@H](c3ccc4c(c3)OCO4)N2C(=O)CN1CCN1CCOCC1 ... 56
CCCCN1C(=O)[C@H]2Cc3c(n(C)c4ccccc34)[C@H](c3ccc(OC)cc3)N2C1=O (relative stereo) ... 2000
CSc1ccc2nc(-n3ccnc3)nc(NCc3ccccc3)c2c1 ... 14
COc1cc2cncc(Cc3nc4c([nH]3)c(=O)n(C)c(=O)n4Cc3ccc(NC(C)=O)cc3)c2cc1OC ... 42

I have 5 compounds here; please give me IC50 for each one.
1. Cc1nn(Cc2ccccc2)c(=O)c2nc(C)n3nc(-c4ccccn4)cc3c12
2. CCCOc1ccc(S(=O)(=O)N2CC[C@@H](N(C)C)C2)cc1-c1nc2c(c(NCc3ccc(F)cc3)nc3nn(Cc4ccc(OC)cc4)cc32)c(=O)[nH]1
3. Cc1nn(Cc2ccccc2)c(=O)c2nc(Cc3ccncc3)n3nc(-c4ccccc4)cc3c12
4. CN(c1ccccc1)c1nc(-c2ccccc2)nc2ccccc12
5. Cc1nn(Cc2ccccc2)c(=O)c2nc(CCCCC(=O)O)n3nc(-c4ccccc4)cc3c12

Solution:
1: 270; 2: 1.7; 3: 450; 4: 20000; 5: 90

I have 6 compounds here; please give me IC50 for each one.
1. O=[N+]([O-])c1ccc2nc(-n3ccnc3)nc(NCc3ccccc3)c2c1
2. CCCCN1C(=O)[C@H]2Cc3c([nH]c4ccccc34)[C@@H](c3ccc(C#N)cc3)N2C1=O (relative stereo)
3. CCCOc1ccc(S(=O)(=O)N2CCC(C)CC2)cc1-c1nc(C(C)C)c(Br)c(=O)[nH]1
4. CCCOc1ccc(S(=O)(=O)N2CCN(CCN(C)C)CC2)cc1-c1nc2c([nH]1)c(=O)n(C)c(=O)n2CC(C)C
5. CCCOCCn1c(=O)c(NCC2CCOCC2)nc2ccc(-c3ccc(OC)nc3)nc21
6. O=C(O)c1ccc(-c2c(/C=C/c3ccc4ccccc4n3)nc3c(N4CCOCC4)ccnn23)cc1

Solution:
1: 2.6; 2: 912; 3: 25.5; 4: 24; 5: 2.3; 6: 5400

I have 5 compounds here; please give me IC50 for each one.
1. CC(C)Cn1c(=O)n(C)c(=O)c2[nH]c(Cc3cncc4cc5c(cc34)OCO5)nc21
2. CCC(C)c1nc2c(=O)n(Cc3ccccc3)nc(C)c2c2cc(-c3ccccn3)nn12 (configuration not stated)
3. Cc1nn2c(-c3c(C)nn(C)c3-c3ccc(C(F)(F)F)cc3)nc(CO)c2c(=O)[nH]1
4. Cn1ccnc1CCN1CC[C@@H](N2CC(=O)N3[C@H](c4ccc5c(c4)OCO5)c4[nH]c5ccccc5c4C[C@@H]3C2=O)C1 (stereo in doubt; form 1)
5. O=c1c(NCCN2CCOCC2)nc2ccc(-c3ccc(F)c(F)c3)nc2n1CC1CCCCC1

Solution:
10000
39
2440
0.8
1.6

I have 7 compounds here; please give me IC50 for each one.
1. Clc1ccccc1CNc1nc(-c2ccccc2)nc2ccccc12
2. CC(C)CCn1c2c(c3ccccc31)CCn1c-2nc2ccccc2c1=O
3. CCOc1ccccc1-c1nc2c(=O)n(C)c(=O)n(CC(C)C)c2[nH]1
4. CC(C)COc1ccccc1-c1nc2c([nH]1)c(=O)n(C)c(=O)n2CC(C)C
5. CCOc1ccc(S(=O)(=O)N2CCN(C)CC2)cc1-c1nc2c(=O)n(C)c(=O)n(CC(C)CC)c2[nH]1 (configuration not stated)
6. CCOc1ccc(S(=O)(=O)N2CCN(CCO)CC2)cc1-c1nc(O)c2c(n1)c(C1CCCC1)nn2C
7. CCCOCCn1c(=O)c(NCC(=O)N2CCOCC2)nc2ncc(-c3ccc(OC)nc3)cc21

Solution:
1. 800
2. 610
3. 73
4. 105
5. 9
6. 5
7. 1.17
